biological target: importin-alpha2 (mImpα2) (Mus musculus, UniProt P52293); test: MST
pKd: −log10 of the molar value.
MEASUREMENT NAME: pKd

What the record says about PVKKPKIRRKKSLS [TAF8 NLS NLS] : pKd is ~6.00
